Test system: IGROV1 ovarian
Experiment: NCI tumour cell line growth inhibition, 48 h
Kindly supply the reported TGI values for the records listed here.

Study these solved cases before continuing.
compound | TGI
CCOc1ccc(Nc2nc(N)nc(N)c2N=O)cc1 | 33.4 µM
CCOC(=O)CC1C(C(=O)OCC)=Cn2c([nH]c3cccc4cccc2c43)=C1C(=O)OCC (centres undefined) | > 100 µM
Cc1ccccc1NC(=O)C(=O)CC(=O)c1sc(-n2nc(-c3ccccc3)cc2-c2ccccc2)nc1C | > 100 µM

Report TGI for each item below.
1. O=C([CH-]C(=O)c1ccccc1)c1ccccc1.[CH2-]C.[CH2-]C.[Tl+3]
2. CCOC(=O)CCC(C(=O)OCC)n1nnc2cc(Nc3c(C)[n+]([O-])c4cc(Cl)ccc4[n+]3[O-])ccc21 (centres undefined)
3. CC(=O)CCN1CC2CN=NC2(C#N)C1 (centres undefined)
4. CCOC(=O)CC1(N)CC2c3ccccc3OC(=O)C2C(=O)N1 (centres undefined)
5. O=C(c1ccccc1)C1C(c2ccccc2[N+](=O)[O-])N1C1CCCCC1 (centres undefined)
6. Nc1ncnc2c1ncn2CCCNO

A:
1: > 100 µM; 2: > 100 µM; 3: > 100 µM; 4: > 100 µM; 5: 17.4 µM; 6: > 100 µM

* * *

Kindly supply the reported TGI values for the records listed here.
Tested on: K-562 leukemia
Assay: NCI tumour cell line growth inhibition, 48 h

compound | reportedValue
COc1ccc(S(=O)(=O)NNS(C)(=O)=O)cc1OC | > 100 µM
CCOC(=O)CCC(NC(=O)c1ccc(NCc2ccc3nc(OC)c(OC)nc3c2)c2ccccc12)C(=O)OCC (stereo not given) | > 100 µM
COc1cc(/C=C/C(=O)/C=C/c2ccc(-n3ccnc3)cc2)ccc1O | > 100 µM
O=C(O)C1C2OC(C(Br)C2Br)C1C(=O)O (stereo not given) | > 100 µM
O=C(CCCCCCCCC(=O)N1C(=O)CC(=O)N(c2ccc(Cl)cc2)C1=S)N1C(=O)CC(=O)N(c2ccc(Cl)cc2)C1=S | > 100 µM

Report TGI for each item below.
1. CCN(CCCl)c1cc(CN(C)C)cc(NC(=O)c2ccc(C(=O)Nc3cccc(N(CCCl)NN)c3)cc2)c1
2. CC(CSc1nc2c(c(=N)n1-c1ccccc1)c(=S)n(-c1ccccc1)c(=S)n2-c1ccccc1)CN(C)C (stereo not given)
3. N#Cc1nc(-c2ccsc2)oc1N
4. COc1cc(-c2cc(OC)c(OC)c3ccc(Br)cc23)c2cc(Br)ccc2c1OC

A:
["0.199 µM", "3.14 µM", "> 100 µM", "77.8 µM"]

Report TGI for each item below.
1. CC(C)C(Nc1c2ccccc2[n+](C)c2ccccc12)C(=O)O (stereo not given)
2. CSC1=C(C)C(/C=N/Nc2ccc([N+](=O)[O-])cc2)=C(C)N(c2ccccc2)S1(=O)=O
3. CC(C)OC(=O)c1cc(NC(=S)OC(C)C)ccc1Cl

A:
1. > 100 µM
2. > 100 µM
3. > 100 µM

Report TGI for each item below.
1. CC(C)(C)c1cnc(CSc2cnc(NC(=O)C3CCNCC3)s2)o1
2. Cc1nc(Nc2ccc(Cl)c(Cl)c2)sc1C(/C=C/c1ccc2c(c1)OCO2)=N/Nc1ccc([N+](=O)[O-])cc1[N+](=O)[O-]
3. CCOC(=O)c1c(-c2ccc(Cl)cc2)c(C#N)c(=S)n(C2OC(COC(C)=O)C(OC(C)=O)C(OC(C)=O)C2OC(C)=O)c1C (stereo not given)

A:
["> 53.2 µM", "> 100 µM", "> 100 µM"]
